tested on: MCF-7 (breast carcinoma); assay: Cytotoxicity, Example 8; assay type: cell-based; conditions: Homo sapiens, MCF7, 72 h
MEASURED_PARAMETER: pIC50
Field pIC50 (float): negative decimal logarithm of the concentration in molar.

Task item: Field request: pIC50 | item: CC(=O)O[C@H]1C(=O)[C@@]2(C)[C@H]([C@H](OC(=O)c3ccccc3)[C@]3(O)C[C@H](OC(=O)[C@H](OC(=O)CSCC(=O)O)[C@@H](NC(=O)c4ccccc4)c4ccccc4)C(C)=C1C3(C)C)[C@]1(OC(C)=O)CO[C@@H]1C[C@@H]2O [Compound 4, 2'-thiodiglycolic taxol]
Reply: 4.00

Task item: Field request: pIC50 | item: CC(=O)O[C@H]1C(=O)[C@@]2(C)[C@H]([C@H](OC(=O)c3ccccc3)[C@]3(O)C[C@H](OC(=O)[C@H](OC(=O)COCC(=O)O)[C@@H](NC(=O)c4ccccc4)c4ccccc4)C(C)=C1C3(C)C)[C@]1(OC(C)=O)CO[C@@H]1C[C@@H]2O [Compound 3]
Reply: 3.45

Task item: Field request: pIC50 | item: CC(=O)O[C@H]1C(=O)[C@@]2(C)[C@H]([C@H](OC(=O)c3ccccc3)[C@]3(O)C[C@H](OC(=O)[C@H](OC(=O)CS(=O)(=O)CC(=O)O)[C@@H](NC(=O)c4ccccc4)c4ccccc4)C(C)=C1C3(C)C)[C@]1(OC(C)=O)CO[C@@H]1C[C@@H]2O [Compound 5]
Reply: 4.21

Now take the following compound into account.
Task item: Field request: pIC50 | item: CC(=O)O[C@H]1C(=O)[C@@]2(C)[C@H]([C@H](OC(=O)c3ccccc3)[C@]3(O)C[C@H](OC(=O)[C@H](O)[C@@H](NC(=O)c4ccccc4)c4ccccc4)C(C)=C1C3(C)C)[C@]1(OC(C)=O)CO[C@@H]1C[C@@H]2O [Taxol]
Reply: 4.19

* * *

assay: Water solubility in D2O by 1H NMR; conditions: d2o
MEASURED_PARAMETER: solubility (µg/mL)
Please state the figure in µg/mL; there is no need to write the unit.

Task item: Field request: solubility | item: CC(=O)O[C@H]1C(=O)[C@@]2(C)[C@H]([C@H](OC(=O)c3ccccc3)[C@]3(O)C[C@H](OC(=O)[C@H](OC(=O)COCC(=O)O)[C@@H](NC(=O)c4ccccc4)c4ccccc4)C(C)=C1C3(C)C)[C@]1(OC(C)=O)CO[C@@H]1C[C@@H]2O [drawing 5]
Reply: 840

Others:
Task item: Field request: solubility | item: CC(=O)O[C@H]1C(=O)[C@]2(C)[C@@H](OC(=O)CSCC(=O)O)C[C@H]3OC[C@@]3(OC(C)=O)[C@H]2[C@H](OC(=O)c2ccccc2)[C@]2(O)C[C@H](OC(=O)[C@H](OC(=O)CSCC(=O)O)[C@@H](NC(=O)c3ccccc3)c3ccccc3)C(C)=C1C2(C)C [drawing 14]
Reply: 460

Task item: Field request: solubility | item: CC(=O)O[C@H]1C(=O)[C@@]2(C)[C@H]([C@H](OC(=O)c3ccccc3)[C@]3(O)C[C@H](OC(=O)[C@H](OC(=O)CS(=O)(=O)CC(=O)O)[C@@H](NC(=O)c4ccccc4)c4ccccc4)C(C)=C1C3(C)C)[C@]1(OC(C)=O)CO[C@@H]1C[C@@H]2O [drawing 7]
Reply: 1200

Task item: Field request: solubility | item: CC(=O)O[C@H]1C(=O)[C@@]2(C)[C@H]([C@H](OC(=O)c3ccccc3)[C@]3(O)C[C@H](OC(=O)[C@H](OC(=O)CSCC(=O)O)[C@@H](NC(=O)c4ccccc4)c4ccccc4)C(C)=C1C3(C)C)[C@]1(OC(C)=O)CO[C@@H]1C[C@@H]2O [drawing 6]
Reply: 350

Task item: Field request: solubility | item: CC(=O)O[C@H]1C(=O)[C@]2(C)[C@@H](OC(=O)COCC(=O)O)C[C@H]3OC[C@@]3(OC(C)=O)[C@H]2[C@H](OC(=O)c2ccccc2)[C@]2(O)C[C@H](OC(=O)[C@H](OC(=O)COCC(=O)O)[C@@H](NC(=O)c3ccccc3)c3ccccc3)C(C)=C1C2(C)C [drawing 13]
Reply: 500
